target_or_test_system: T1, cynomolgus monkey TNFR2 extracellular domain as used in the blocking ELISA (cynomolgus monkey, UniProt P20333 23-257 (human entry))
T1 construct: also called cynoTNFR2
T1 chain: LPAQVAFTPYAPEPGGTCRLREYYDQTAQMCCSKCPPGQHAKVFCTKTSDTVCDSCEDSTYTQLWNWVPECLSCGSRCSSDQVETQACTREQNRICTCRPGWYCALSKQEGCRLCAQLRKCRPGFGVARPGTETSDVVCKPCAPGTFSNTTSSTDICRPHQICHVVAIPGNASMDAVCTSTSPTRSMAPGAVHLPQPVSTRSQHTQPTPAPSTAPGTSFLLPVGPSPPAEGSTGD
experiment_notes: blocking ELISA: antibody pre-mixed with cynoTNFR2, binding of cynoTNFR2 to coated cynomolgus monkey TNFα read out
Entries and their measured IC50 follow.
Give the value in nM but do not write nM after it.

Answered cases to consult:
- binder: "15H10 chimeric anti-TNFR2 antibody (antibody, V domains shown, Chimeric: mouse variable domains with human constant regions, made as recombinant IgG1) VH: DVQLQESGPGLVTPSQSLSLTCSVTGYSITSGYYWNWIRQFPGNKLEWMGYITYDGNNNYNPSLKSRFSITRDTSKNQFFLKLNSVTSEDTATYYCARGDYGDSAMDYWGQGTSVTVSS VL: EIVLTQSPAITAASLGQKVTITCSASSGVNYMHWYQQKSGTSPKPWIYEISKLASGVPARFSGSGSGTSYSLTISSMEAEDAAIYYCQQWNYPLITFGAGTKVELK"
  IC50, nM: 1.01
- binder: "29G3 chimeric anti-TNFR2 antibody (antibody, V domains shown, Chimeric: mouse variable domains with human constant regions, made as recombinant IgG1) VH: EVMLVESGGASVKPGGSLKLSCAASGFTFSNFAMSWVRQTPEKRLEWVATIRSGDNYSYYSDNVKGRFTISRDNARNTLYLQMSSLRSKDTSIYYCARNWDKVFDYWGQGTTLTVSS VL: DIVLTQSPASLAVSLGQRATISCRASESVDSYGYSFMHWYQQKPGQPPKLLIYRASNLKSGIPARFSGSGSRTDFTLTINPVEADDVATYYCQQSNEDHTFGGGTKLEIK"
  IC50, nM: 0.927

Read the next record carefully.
Please give the documented IC50 of 85G8.4 chimeric anti-TNFR2 antibody (antibody, V domains shown, Chimeric: mouse variable domains with human constant regions, made as recombinant IgG1) VH: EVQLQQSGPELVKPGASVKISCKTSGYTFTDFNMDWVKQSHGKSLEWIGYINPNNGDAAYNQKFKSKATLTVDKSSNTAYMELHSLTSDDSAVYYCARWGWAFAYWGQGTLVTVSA VL: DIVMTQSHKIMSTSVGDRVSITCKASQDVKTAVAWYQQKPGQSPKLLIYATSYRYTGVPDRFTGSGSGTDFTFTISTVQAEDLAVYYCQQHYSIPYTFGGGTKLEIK
1.02
